The listing below reports IC50 for compounds tested on Aldo-keto reductase family 1 member B1 (Rattus norvegicus).
Respond numerically; units are µM and should not be typed.

get_value(item= COc1cc(-c2oc3cc(O)cc(O)c3c(=O)c2O[C@@H]2O[C@H](CO[C@@H]3O[C@@H](C)[C@H](O)[C@@H](O)[C@H]3O)[C@@H](O)[C@H](O)[C@H]2O)ccc1O [NARCISSIN] , readout=IC50) returns 12.1

Record summary for O=c1c(O[C@@H]2OC[C@H](O)[C@H](O)[C@H]2O)c(-c2ccc(O)c(O)c2)oc2cc(O)cc(O)c12 [GUAJAVERIN] : reported IC50 = 0.32

Source of measurements: ChEMBL document CHEMBL2010655
